Values were extracted from PubChem BioAssay AID2060904.

- System: 349418-098-R-PDC complex spheroid viability
- procedureSummary: Anticancer human tumor 349418-098-R-PDC patient-derived lung adenocarcinoma cell line growth inhibition [RAS]
- appliedConditions: second compound 0.3 µM; first compound 0.003 µM; active compounds read low
measurementName: viability, T/C (%)
// return numeric value only (unit: %, not printed)

Record excerpt, results attached:
| molecule | measurementName | observedValue |
| --- | --- | --- |
| CC1(C)CCC(Nc2ncc(C(F)(F)F)c(-c3c[nH]c4c(P(C)(C)=O)c(C#N)ccc34)n2)CN1 (centres undefined) + CCn1c(-c2cccnc2C(C)OC)c2c3cc(ccc31)N1CCOC(CC(NC(=O)C(C(C)C)N(C)C(=O)C3(F)CCN(C(=O)C#CC(C)(C)N(C)C)CC3)C(=O)N3CCCC(N3)C(=O)OCC(C)(C)C2)C1 | viability, T/C | 22.5 |
| CC1(C)CCC(Nc2ncc(C(F)(F)F)c(-c3c[nH]c4c(P(C)(C)=O)c(C#N)ccc34)n2)CN1 (centres undefined) + CCn1c(-c2cc(N3CCN(C)CC3)cnc2C(C)OC)c2c3cc(ccc31)-c1csc(n1)CC(NC(=O)C1CC1C)C(=O)N1CCCC(N1)C(=O)OCC(C)(C)C2 | viability, T/C | 23.7 |
| CCc1c2c(nc3ccc(O)cc13)-c1cc3c(c(=O)n1C2)COC(=O)[C@]3(O)CC + CCn1c(-c2cccnc2C(C)OC)c2c3cc(ccc31)N1CCOC(CC(NC(=O)C(C(C)C)N(C)C(=O)C3(F)CCN(C(=O)C#CC(C)(C)N(C)C)CC3)C(=O)N3CCCC(N3)C(=O)OCC(C)(C)C2)C1 | viability, T/C | 22.4 |

Please look at the following molecule next.
Find the recorded viability, T/C belonging to CCc1c2c(nc3ccc(O)cc13)-c1cc3c(c(=O)n1C2)COC(=O)[C@]3(O)CC + CCn1c(-c2cc(N3CCN(C)CC3)cnc2C(C)OC)c2c3cc(ccc31)-c1csc(n1)CC(NC(=O)C1CC1C)C(=O)N1CCCC(N1)C(=O)OCC(C)(C)C2 and report it. 41

---

- Tested on: 349418-098-R-PDC complex spheroid viability
- procedureSummary: Anticancer human tumor 349418-098-R-PDC cell line growth inhibition [RAS]; active = viability on the fitted dose curve at most 10% of control; inactive = the rest;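 also: spheroids exposed to compound for seven days before viability readout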
- appliedConditions: second compound 0.00949 µM; first compound 1 µM
Entry note: the call must match one of t = active, f = inactive

| molecule | assignedClass |
| --- | --- |
| CC1(O)CCCC1n1c(=O)c(C(F)F)cc2cnc(NC3CCN(S(C)(=O)=O)CC3)nc21 (stereo not given) + CCn1c(-c2cccnc2C(C)OC)c2c3cc(ccc31)N1CCOC(CC(NC(=O)C(C(C)C)N(C)C(=O)C3(F)CCN(C(=O)C#CC(C)(C)N(C)C)CC3)C(=O)N3CCCC(N3)C(=O)OCC(C)(C)C2)C1 | f |

Returns: the outcome recorded for CCC(CC)c1cc(NC2CCC(N)C2)n2nccc2n1 (stereo not given) + CCn1c(-c2cc(N3CCN(C)CC3)cnc2C(C)OC)c2c3cc(ccc31)-c1csc(n1)CC(NC(=O)C1CC1C)C(=O)N1CCCC(N1)C(=O)OCC(C)(C)C2 in this assay. f

Returns: the outcome recorded for O=C(c1ccc(F)c(F)c1Nc1ccc(I)cc1F)N1CC(O)([C@@H]2CCCCN2)C1 + CCn1c(-c2cccnc2C(C)OC)c2c3cc(ccc31)N1CCOC(CC(NC(=O)C(C(C)C)N(C)C(=O)C3(F)CCN(C(=O)C#CC(C)(C)N(C)C)CC3)C(=O)N3CCCC(N3)C(=O)OCC(C)(C)C2)C1 in this assay. t

Returns: the outcome recorded for CC(C)NCC(C(=O)N1CCN(c2ncnc3c2C(C)CC3O)CC1)c1ccc(Cl)cc1 (stereo not given) + CCn1c(-c2cccnc2C(C)OC)c2c3cc(ccc31)N1CCOC(CC(NC(=O)C(C(C)C)N(C)C(=O)C3(F)CCN(C(=O)C#CC(C)(C)N(C)C)CC3)C(=O)N3CCCC(N3)C(=O)OCC(C)(C)C2)C1 in this assay. f

Returns: the outcome recorded for CC(C)NCC(C(=O)N1CCN(c2ncnc3c2C(C)CC3O)CC1)c1ccc(Cl)cc1 (stereo not given) + CCn1c(-c2cc(N3CCN(C)CC3)cnc2C(C)OC)c2c3cc(ccc31)-c1csc(n1)CC(NC(=O)C1CC1C)C(=O)N1CCCC(N1)C(=O)OCC(C)(C)C2 in this assay. f

Returns: the outcome recorded for C=CC(=O)N1CCN(c2nc(OCC3CCCN3C)nc3c(F)c(-c4nc(N)cc(C)c4C(F)(F)F)c(Cl)cc23)C(C)C1 (stereo not given) + CCn1c(-c2cccnc2C(C)OC)c2c3cc(ccc31)N1CCOC(CC(NC(=O)C(C(C)C)N(C)C(=O)C3(F)CCN(C(=O)C#CC(C)(C)N(C)C)CC3)C(=O)N3CCCC(N3)C(=O)OCC(C)(C)C2)C1 in this assay. f

Returns: the outcome recorded for NC1c2ccccc2OC12CCN(c1cnc3c(N4CCCc5ncccc54)n[nH]c3n1)CC2 (stereo not given) + CCn1c(-c2cccnc2C(C)OC)c2c3cc(ccc31)N1CCOC(CC(NC(=O)C(C(C)C)N(C)C(=O)C3(F)CCN(C(=O)C#CC(C)(C)N(C)C)CC3)C(=O)N3CCCC(N3)C(=O)OCC(C)(C)C2)C1 in this assay. f

Returns: the outcome recorded for Nc1ccn(C2OC(CO)C(O)C2(F)F)c(=O)n1 (stereo not given) + CCn1c(-c2cc(N3CCN(C)CC3)cnc2C(C)OC)c2c3cc(ccc31)-c1csc(n1)CC(NC(=O)C1CC1C)C(=O)N1CCCC(N1)C(=O)OCC(C)(C)C2 in this assay. t

Returns: the outcome recorded for CC(=O)OC12COC1CC(O)C1(C)C(=O)C(O)C3=C(C)C(OC(=O)C(O)C(NC(=O)OC(C)(C)C)c4ccccc4)CC(O)(C(OC(=O)c4ccccc4)C21)C3(C)C (stereo not given) + CCn1c(-c2cccnc2C(C)OC)c2c3cc(ccc31)N1CCOC(CC(NC(=O)C(C(C)C)N(C)C(=O)C3(F)CCN(C(=O)C#CC(C)(C)N(C)C)CC3)C(=O)N3CCCC(N3)C(=O)OCC(C)(C)C2)C1 in this assay. f

Returns: the outcome recorded for Cc1nc(N2CCC3(CC2)COC(C)C3N)c(CO)nc1Sc1ccnc(N)c1Cl (stereo not given) + CCn1c(-c2cc(N3CCN(C)CC3)cnc2C(C)OC)c2c3cc(ccc31)-c1csc(n1)CC(NC(=O)C1CC1C)C(=O)N1CCCC(N1)C(=O)OCC(C)(C)C2 in this assay. f

Returns: the outcome recorded for C[C@@H](NC(=O)c1ncnc(N)c1Cl)c1ncc(C(=O)Nc2cc(C(F)(F)F)c(Cl)cn2)s1 + CCn1c(-c2cc(N3CCN(C)CC3)cnc2C(C)OC)c2c3cc(ccc31)-c1csc(n1)CC(NC(=O)C1CC1C)C(=O)N1CCCC(N1)C(=O)OCC(C)(C)C2 in this assay. f

Returns: the outcome recorded for Cc1nc(N2CCC3(CC2)COC(C)C3N)c(CO)nc1Sc1ccnc(N)c1Cl (stereo not given) + CCn1c(-c2cccnc2C(C)OC)c2c3cc(ccc31)N1CCOC(CC(NC(=O)C(C(C)C)N(C)C(=O)C3(F)CCN(C(=O)C#CC(C)(C)N(C)C)CC3)C(=O)N3CCCC(N3)C(=O)OCC(C)(C)C2)C1 in this assay. f

---

Measured viability, T/C, listed per entry for reference.
- System: 349418-098-R-PDC complex spheroid viability
- procedureSummary: Anticancer human tumor 349418-098-R-PDC cell line growth inhibition [RAS];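 also: spheroids exposed to compound for seven days before viability readout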
- appliedConditions: second compound 0.00949 µM; first compound 10 µM; active compounds read low
// return numeric value only (unit: %, not printed)

Record excerpt, results attached:
| compound | measurementName | unitsLabel | observedValue |
| --- | --- | --- | --- |
| CCC(CC)c1cc(NC2CCC(N)C2)n2nccc2n1 (centres undefined) + CCn1c(-c2cccnc2C(C)OC)c2c3cc(ccc31)N1CCOC(CC(NC(=O)C(C(C)C)N(C)C(=O)C3(F)CCN(C(=O)C#CC(C)(C)N(C)C)CC3)C(=O)N3CCCC(N3)C(=O)OCC(C)(C)C2)C1 | viability, T/C | % | 2.37 |
| CC1(O)CCCC1n1c(=O)c(C(F)F)cc2cnc(NC3CCN(S(C)(=O)=O)CC3)nc21 (centres undefined) + CCn1c(-c2cc(N3CCN(C)CC3)cnc2C(C)OC)c2c3cc(ccc31)-c1csc(n1)CC(NC(=O)C1CC1C)C(=O)N1CCCC(N1)C(=O)OCC(C)(C)C2 | viability, T/C | % | 2.74 |
| CCC(CC)c1cc(NC2CCC(N)C2)n2nccc2n1 (centres undefined) + CCn1c(-c2cc(N3CCN(C)CC3)cnc2C(C)OC)c2c3cc(ccc31)-c1csc(n1)CC(NC(=O)C1CC1C)C(=O)N1CCCC(N1)C(=O)OCC(C)(C)C2 | viability, T/C | % | 2.27 |

Please look at the following compound next.
Find the recorded viability, T/C belonging to NC1c2ccccc2OC12CCN(c1cnc3c(N4CCCc5ncccc54)n[nH]c3n1)CC2 (centres undefined) + CCn1c(-c2cc(N3CCN(C)CC3)cnc2C(C)OC)c2c3cc(ccc31)-c1csc(n1)CC(NC(=O)C1CC1C)C(=O)N1CCCC(N1)C(=O)OCC(C)(C)C2 and report it. 73.9
